System: rLUJV/ZsG
Method notes: microbe, parasite or virus in culture
Format: cell-based, Lujo virus
Assay setup: Mammarenavirus lujoense, Huh-7; 5000 nM; read-out: Relative ZsG (%) Mean
Counter-ions that a name gives are not always drawn.
Label false (0) if activity at 5 µM falls below 50%; label true (1) in every other case.

CC(C)/N=c1\cc2n(-c3ccc(Cl)cc3)c3ccccc3nc-2cc1Nc1ccc(Cl)cc1 | true (1)
O=c1cnn([C@@H]2O[C@H](CO)[C@@H](O)[C@H]2O)c(=S)[nH]1 | true (1)
CN(C)CCCN1c2ccccc2CCc2ccc(Cl)cc21 [Clomipramine HCL] | false (0)
N#CC1(c2ccc(NC(=O)c3cccnc3NCc3ccncc3)cc2)CCCC1 | false (0)
C[C@@]1(O)[C@H](O)[C@@H](CO)O[C@H]1n1ccc(N)nc1=O | true (1)
Clc1ccc(COC(Cn2ccnc2)c2ccc(Cl)cc2Cl)c(Cl)c1 (centres unmarked) [Miconazole nitrate] | false (0)
O=C(Nc1ccc([N+](=O)[O-])cc1Cl)c1cc(Cl)ccc1O [Niclosamide] | false (0)
OC(CNCC(O)C1CCc2cc(F)ccc2O1)C1CCc2cc(F)ccc2O1 (centres unmarked) | false (0)

---

Tested on: Huh7 cells
Assay setup: 5000 nM
Cell Viability (%) Mean values, listed per item
Reported metric: Cell Viability (%) Mean

[N-]=[N+]=N[C@]1(CO)O[C@@H](n2ccc(N)nc2=O)[C@@H](O)[C@@H]1O | 102
C[C@@]1(F)[C@H](O)[C@@H](CO)O[C@H]1n1ccc(=O)[nH]c1=O | 104
CC(C)OC(=O)[C@H](C)N[P@@](=O)(OC[C@H]1O[C@@H](n2ccc(=O)[nH]c2=O)[C@](C)(F)[C@@H]1O)Oc1ccccc1 | 107
C[C@@]1(F)[C@H](O)[C@@H](CO)O[C@H]1n1ccc(N)nc1=O | 99
Nc1cccc(-c2cc3c(Oc4cccc(O)c4)ncnc3[nH]2)c1 | 36
CC(C)C(=O)OC[C@H]1O[C@@H](n2ccc(N)nc2=O)[C@](C)(F)[C@@H]1OC(=O)C(C)C | 103
COc1ccc(-n2cnc3cc(NCc4ccc(C(C)C)cc4)ccc32)cc1 | 101
Cc1ccc(Nc2nccc(N(C)c3ccc4c(C)n(C)nc4c3)n2)cc1S(N)(=O)=O.Cl [Pazopanib HCl] | 54
CCCCCCCCCCCCCCCCn1cc[n+](Cc2ccccc2)c1C.[I-] | 1
C[C@@]1(O)[C@H](O)[C@@H](CO)O[C@H]1n1ccc2c(N)ncnc21 | 113
C[C@H](Cn1cnc2c(N)ncnc21)OCP(=O)(O)O | 100
Cl.Fc1ccc([C@@H]2CCNC[C@H]2COc2ccc3c(c2)OCO3)cc1 [Paroxetine HCl] | 110
[N-]=[N+]=N[C@]1(CO)O[C@@H](n2ccc(N)nc2=O)[C@H](O)[C@@H]1O | 96
C#C[C@@]1(O)[C@H](O)[C@@H](CO)O[C@H]1n1ccc2c(N)ncnc21 | 97

---

Method notes: in vitro
Assay setup: human
Where a name gives a salt, the structure may show the parent alone.
Reported metric: viability at 5 µM (%)

COC1=CC(c2cc3ccccc3[nH]2)=N/C1=C\c1[nH]c(C)cc1C | 2
CN1CCC[C@@H]1CCO[C@](C)(c1ccccc1)c1ccc(Cl)cc1 [Clemastine fumarate] | 107
Clc1ccc(COC(Cn2ccnc2)c2ccc(Cl)cc2Cl)c(Cl)c1 (stereo not drawn) [Miconazole nitrate] | 67
Cc1cn([C@H]2C[C@H](N=[N+]=[N-])[C@@H](CO)O2)c(=O)[nH]c1=O | 93
COc1c(-c2ccc3cc(NS(C)(=O)=O)ccc3c2)cc(-n2ccc(=O)[nH]c2=O)cc1C(C)(C)C | 104
O=C1C=CN([C@@H]2O[C@H](CO)[C@@H](O)[C@H]2O)C(=O)C1 | 99
O=c1cnn([C@@H]2O[C@H](CO)[C@@H](O)[C@H]2O)c(=S)[nH]1 | 103
O=C(NCCCNc1nc(Nc2cccc(NC(=O)N3CCCC3)c2)ncc1I)c1cccs1 | 60
CN(C)CCOc1ccc(/C(=C(/CCCl)c2ccccc2)c2ccccc2)cc1 [Toremifene citrate] | 93
CO[C@@H]1[C@H](O)[C@@H](CO)O[C@H]1n1ccc(=O)[nH]c1=O | 96
CN(C)C(=O)C(CCN1CCC(O)(c2ccc(Cl)cc2)CC1)(c1ccccc1)c1ccccc1 [Loperamide HCL] | 85
O=c1[nH]c(=O)n([C@@H]2O[C@H](CO)[C@@H](O)[C@H]2O)cc1Cl | 99
C[C@@H](c1nc(-c2ccc(C#N)cc2)cs1)[C@](O)(Cn1cncn1)c1cc(F)ccc1F | 75
COc1ccc2cc1Oc1ccc(cc1)C[C@H]1c3cc(c(OC)cc3CCN1C)Oc1c(OC)c(OC)cc3c1[C@H](C2)N(C)CC3 | 1
Nc1ncn([C@@H]2O[C@H](CO)[C@@H](O)[C@H]2O)c(=O)n1 | 102
CCOC(=O)c1c(CSc2ccccc2)n(C)c2cc(Br)c(O)c(CN(C)C)c12 | 109
O=C(Nc1ccc([N+](=O)[O-])cc1Cl)c1cc(Cl)ccc1O [Niclosamide] | 1
COc1ccc(-c2ccc3c(N4CCOC[C@@H]4C)nc(N4CCOC[C@@H]4C)nc3n2)cc1CO | 45
CNCC[C@H](Oc1cccc2ccccc12)c1cccs1 [Duloxetine HCL] | 76
Cc1c(-c2ccc(-c3ccccc3F)cc2)nc2ccc(F)cc2c1C(=O)O | 67
O=C1C(O)=C([C@H]2CC[C@H](c3ccc(Cl)cc3)CC2)C(=O)c2ccccc21 | 115
O=c1c(-c2ccc(O)cc2)coc2cc(O)cc(O)c12 | 106
CC(C)OC(=O)[C@H](C)N[P@](=O)(OC[C@H]1O[C@@H](n2ccc(=O)[nH]c2=O)[C@](C)(F)[C@@H]1O)Oc1ccccc1 | 104
Cc1cccc(/C=N/Nc2cc(N3CCOCC3)nc(OCCc3ccccn3)n2)c1 | 80
O=c1[nH]c(=O)n([C@@H]2O[C@H](CO)[C@@H](O)[C@H]2O)cc1F | 103
CN[C@H]1CC[C@@H](c2ccc(Cl)c(Cl)c2)c2ccccc21 | 107
CN(C)C/C=C/C(=O)Nc1cc2c(Nc3ccc(F)c(Cl)c3)ncnc2cc1O[C@H]1CCOC1 | 60
COc1cc2ncnc(Nc3ccc(F)c(Cl)c3)c2cc1OCCCN1CCOCC1 | 101
O=c1cnn([C@@H]2O[C@H](CO)[C@@H](O)[C@H]2O)c(=O)[nH]1 | 97
Cc1c(-c2ccc(O)cc2)n(Cc2ccc(OCCN3CCCCCC3)cc2)c2ccc(O)cc12 [Bazedoxifene HCL] | 84
CC[C@H](CC#N)OC(=O)N[C@@H](C)c1cccc(NC(=O)Nc2ccc(-c3cnco3)c(OC)c2)c1 | 64
N#Cc1cn([C@@H]2O[C@H](CO)[C@@H](O)[C@H]2O)c2ncnc(N)c12 | 23
Nc1nc(Cl)nc2c1ncn2[C@@H]1O[C@H](CO)[C@@H](O)[C@H]1O | 103

---

Method notes: in vitro
Assay setup: human
This section presents compounds with their documented viability at 0.5 µM values.
Reported metric: viability at 0.5 µM (%)

O=C(Nc1ccc([N+](=O)[O-])cc1Cl)c1cc(Cl)ccc1O [Niclosamide] | 2
OC(CNCC(O)C1CCc2cc(F)ccc2O1)C1CCc2cc(F)ccc2O1 (stereo not shown) | 108
C[C@@H](c1nc(-c2ccc(C#N)cc2)cs1)[C@](O)(Cn1cncn1)c1cc(F)ccc1F | 121
Nc1ncnc2c([C@@H]3N[C@H](CO)[C@@H](O)[C@H]3O)c[nH]c12 | 97

---

System: Huh7 cells
Assay setup: 50 nM
In this section, each of the compounds is paired with its reported Cell Viability (%) Mean.
Reported metric: Cell Viability (%) Mean

C[C@@]1(F)[C@H](O)[C@@H](CO)O[C@H]1n1ccc(N)nc1=O | 100
COc1ccc(-n2cnc3cc(NCc4ccc(C(C)C)cc4)ccc32)cc1 | 105
Cl.Fc1ccc([C@@H]2CCNC[C@H]2COc2ccc3c(c2)OCO3)cc1 [Paroxetine HCl] | 138
Cc1ccc(Nc2nccc(N(C)c3ccc4c(C)n(C)nc4c3)n2)cc1S(N)(=O)=O.Cl [Pazopanib HCl] | 134
CC(C)OC(=O)[C@H](C)N[P@@](=O)(OC[C@H]1O[C@@H](n2ccc(=O)[nH]c2=O)[C@](C)(F)[C@@H]1O)Oc1ccccc1 | 94
CCCCCCCCCCCCCCCCn1cc[n+](Cc2ccccc2)c1C.[I-] | 104
[N-]=[N+]=N[C@]1(CO)O[C@@H](n2ccc(N)nc2=O)[C@@H](O)[C@@H]1O | 99
CC(C)C(=O)OC[C@H]1O[C@@H](n2ccc(N)nc2=O)[C@](C)(F)[C@@H]1OC(=O)C(C)C | 100

---

Tested on: rLUJV/ZsG
Method notes: microbe, parasite or virus in culture
Type: cell-based, Lujo virus
Assay setup: Mammarenavirus lujoense, Huh-7; 5000 nM; read-out: Relative ZsG (%) Mean
Counter-ions that a name gives are not always drawn.
Reported metric: activity at 5 µM (%)

NCC(=O)Nc1ccc(-n2nc(C(F)(F)F)cc2-c2ccc3c(ccc4ccccc43)c2)cc1 | 2
COc1ccc(-c2ccc3c(N4CCOC[C@@H]4C)nc(N4CCOC[C@@H]4C)nc3n2)cc1CO | 3
Nc1ncn([C@@H]2O[C@H](CO)[C@@H](O)[C@H]2O)c(=O)n1 | 104
Cc1cn([C@H]2C[C@H](N=[N+]=[N-])[C@@H](CO)O2)c(=O)[nH]c1=O | 92
CO[C@@H]1[C@H](O)[C@@H](CO)O[C@H]1n1ccc(=O)[nH]c1=O | 110
CN1CCC[C@@H]1CCO[C@](C)(c1ccccc1)c1ccc(Cl)cc1 [Clemastine fumarate] | 6
CCOC(=O)C1=C(C)NC(C)=C(C(=O)OCC)C1c1ccccc1/C=C/C(=O)OC(C)(C)C | 47
CC[C@H](CC#N)OC(=O)N[C@@H](C)c1cccc(NC(=O)Nc2ccc(-c3cnco3)c(OC)c2)c1 | 1

Taken from paper PMC8310135.
